- assayed.system: GNA12; note: test concentration or dose not given here
- measurement.conditions: ASO
These antisense oligonucleotides have a phosphorothioate backbone; sugars and methylation of C are not fully specified.
Please provide measured remaining target (mRNA or protein) (fraction of control) for the entries that follow.

Fill in: remaining target (mRNA or protein) (fraction of control) of "TTCATGGACTCCACCAGC" is ___
0.57

Now the sequence "CCTGAAGTCCGGGAAGTG"
0.85

Try this sequence too: "GTCGATGTCGCGGCTACG"
≥ 1

Another: "TTAATAACGAAGTCATGC"
0.73

Let us now turn to "CACAATTCCCTTGGTGGC"
≥ 1

How about "GCTTGAGGAACGTGGACT" ?
0.31

// same read-out, input: "TCAGGAACATCCCATGCT"
0.79

Can you check "CTTGGTGGCTTTCCTAGC" next?
≥ 1

Next record, please: "AAGTCATGCTCCACAATT"
0.64

Entry to check: "GTCGTACTCGCTGGAGGA"
0.39

Can you check "CCGCTGGCCGCCCACATC" next?
0.47

"CCCTGATGCCAGAATCCC" ?
0.39

Same question, "GCGCATCTGCTTGAGGAA" this time
0.82

Consider next the sequence "AGCCCTTGAGGATGTTGT" in the same way.
0.94

Field entry: "CCAGCAGCGCGTCGATGT"
0.29

Ok, now "CTTATCTCGTGCATCAAC"
0.51

How about this sequence: "GATATCTTGCTTACTAGG"
0.37

Same thing, different sequence: "GCAGGATCTTCACCAGGC"
0.93

Quick one: "GGATGATGCGCATCTGCT"
≥ 1

Note, next up: "CATGGAACACGAAGCGGA"
0.57

And for "GGACCTGGTCGTACTCGC" ?
0.42

Another sequence: "CACCAGGAGGTCCATCTT"
0.75

Same again, this time with "TCGAAGATGGTGTCGCGG"
0.98

Then this sequence: "AATTCAGCTGGCCGATCC"
0.59

// query: "ATGATGGAGACGTTGAAG"
≥ 1

Can you check "AGTGCTTCTTGATGCTCA" next?
0.62

Would you mind doing "GCGCCTTCTGGTCGAACT" as well?
0.72

Item: "GTTCCGTCTCTTCCTGTC"
0.36

Same again, this time with "GGTGGAAGAGTGGCTTGC"
0.65

Proceed to "CACATCCACCATCTTAAA"
≥ 1

Can you check "CAGAATCCCTCCAGAGTG" next?
0.37

What would you report for "TCTTCTTAATAACGAAGT" ?
0.48

Try "AGCAGGCAGCGGCTGAGG" next.
0.93

Further, for "ACGTGGACTTGCCGCTCT" ?
0.32

Please answer likewise for "AGGATGTTGTCGAAGATG"
0.77
